Recorded values, source patent US20240002497A1.

In this section, each of the binders is paired with its reported EC50.
# SYSTEM UNDER TEST: T1, huNav1.7α + β1 (HEKa/β1) (human, UniProt Q15858 1-1988; Q07699 19-218)
# T1 construct: also called HEKa/β1 huNav1.7α
# TEST DETAILS: binding FACS, HEKa/β1 cells
Use nM as the unit, but write only the number.

| BINDER | EC50 (nM) |
| --- | --- |
| F010301568 (VHH, G35T vs F0103362B08 (Kabat)) VHH: EVQLVESGGGLVQAGGSLRLSCAASVRPFSTSAMTWFRQAPEKEREAVAGILWNGIVTYYADSVKGRFTISRDNAKNEVYLQMNKLKPEDTAVYYCALDRDYGGRSFSAYEYEYWGQGTLVTVSS | 110 |

Any idea what EC50 was measured for F010301586 (VHH, W52aA vs F0103362B08 (Kabat)) VHH: EVQLVESGGGLVQAGGSLRLSCAASVRPFSTSAMGWFRQAPEKEREAVAGILANGIVTYYADSVKGRFTISRDNAKNEVYLQMNKLKPEDTAVYYCALDRDYGGRSFSAYEYEYWGQGTLVTVSS ?
51
